# experimental_target: purified human recombinant GK (Homo sapiens, UniProt P35557)
# Sequence (P35557 1-465): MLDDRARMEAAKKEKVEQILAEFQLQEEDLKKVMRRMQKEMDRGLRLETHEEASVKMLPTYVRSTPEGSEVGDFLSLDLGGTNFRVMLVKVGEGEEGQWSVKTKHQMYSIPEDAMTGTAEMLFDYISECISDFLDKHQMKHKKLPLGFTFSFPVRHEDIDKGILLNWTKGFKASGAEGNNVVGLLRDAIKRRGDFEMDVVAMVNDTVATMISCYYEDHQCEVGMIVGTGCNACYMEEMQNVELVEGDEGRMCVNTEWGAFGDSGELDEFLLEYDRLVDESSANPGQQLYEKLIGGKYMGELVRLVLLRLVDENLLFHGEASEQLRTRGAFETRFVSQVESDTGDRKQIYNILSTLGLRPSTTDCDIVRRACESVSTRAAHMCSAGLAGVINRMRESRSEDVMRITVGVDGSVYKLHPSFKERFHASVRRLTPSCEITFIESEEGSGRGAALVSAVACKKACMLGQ
# experiment_notes: Glucokinase activity assay (coupled enzymatic GK/G6PD assay, NADH absorbance at 340 nm)
# test_conditions: EC50 of % change in S0.5 of glucokinase for glucose, sigmoidal fit; read-out: EC50 (with respect to % ΔS0.5)
pEC50: −log10 of the molar value.

| compound | qual | pEC50 |
| --- | --- | --- |
| O=C(Nc1nccs1)C(Oc1ccc(Cl)cc1)c1ccc(S(=O)(=O)C2CCCC2)cc1 (centres unmarked) | = | 6.77 |
| O=C(O)Cc1nc(NC(=O)C(Oc2ccc(Cl)cc2)c2ccc(S(=O)(=O)C3CC3)cc2)sc1Cl (centres unmarked) | = | 6.08 |
| O=C(Nc1ncc(F)s1)C(OC1CCOCC1)c1ccc(S(=O)(=O)C2CC2)cc1 (centres unmarked) | = | 6.82 |
| O=C(Nc1cnccn1)C(Oc1ccc(Cl)cc1F)c1ccc(S(=O)(=O)C2CC2)cc1 (centres unmarked) | = | 5.92 |
| CCOc1sc(NC(=O)C(Oc2ccc(F)cc2F)c2ccc(S(=O)(=O)C3CC3)cc2)nc1CC(=O)O (centres unmarked) | < | 5.00 |
